# system_tested: USP28 (His-tagged USP28-FL-mammalian) (Homo sapiens)
# Construct: Expression of USP28 (1-1077)-TEV-6*His (pTT5 vector) was carried out in Expi293f cells
# Sequence (Q96RU2 1-1077): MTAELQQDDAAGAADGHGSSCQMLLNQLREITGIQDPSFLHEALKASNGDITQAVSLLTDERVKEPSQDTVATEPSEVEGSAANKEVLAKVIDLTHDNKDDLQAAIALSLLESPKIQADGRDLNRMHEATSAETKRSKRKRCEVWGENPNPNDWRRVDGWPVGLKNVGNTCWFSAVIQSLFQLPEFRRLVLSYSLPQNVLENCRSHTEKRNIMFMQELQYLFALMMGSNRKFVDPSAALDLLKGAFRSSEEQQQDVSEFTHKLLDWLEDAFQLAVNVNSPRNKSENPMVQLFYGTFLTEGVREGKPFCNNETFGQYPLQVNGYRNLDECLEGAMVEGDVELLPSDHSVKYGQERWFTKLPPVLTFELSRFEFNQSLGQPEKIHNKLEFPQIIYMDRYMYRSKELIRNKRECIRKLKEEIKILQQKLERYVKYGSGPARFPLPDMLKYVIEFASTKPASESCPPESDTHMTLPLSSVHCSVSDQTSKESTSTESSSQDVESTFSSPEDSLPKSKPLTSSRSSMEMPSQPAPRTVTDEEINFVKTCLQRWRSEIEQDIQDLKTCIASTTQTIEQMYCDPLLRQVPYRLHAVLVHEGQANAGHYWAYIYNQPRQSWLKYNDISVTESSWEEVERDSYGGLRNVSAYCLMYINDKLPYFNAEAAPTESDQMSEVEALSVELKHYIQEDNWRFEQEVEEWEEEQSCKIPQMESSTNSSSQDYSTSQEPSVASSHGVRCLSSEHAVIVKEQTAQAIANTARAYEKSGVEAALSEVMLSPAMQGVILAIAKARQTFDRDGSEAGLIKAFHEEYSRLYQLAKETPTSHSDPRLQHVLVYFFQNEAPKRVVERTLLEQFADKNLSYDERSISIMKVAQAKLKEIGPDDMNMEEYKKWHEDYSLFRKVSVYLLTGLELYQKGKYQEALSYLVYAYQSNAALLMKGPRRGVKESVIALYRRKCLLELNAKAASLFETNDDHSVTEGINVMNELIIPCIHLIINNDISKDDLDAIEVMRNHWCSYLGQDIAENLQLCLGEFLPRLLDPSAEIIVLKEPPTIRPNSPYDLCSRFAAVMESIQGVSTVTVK
# assay_overview: Ubiquitin-Rhodamine 110 Assay for USP28 Activity, Example A-1(a)
# conditions_used: USP28, 75 pM enzyme, 25 nM Ub-Rh110, 1536-well, 30 min preincubation; read-out: Assay A-1(a) (IC50 range)
# Protocol: The assay was performed in a final volume of 9 μL in assay buffer containing 20 mM Tris-HCl (pH 8.0, (1M Tris-HCl, pH 8.0 solution; Corning 46-031-CM)), 3 mM BME (2-Mercaptoethanol; Sigma 63689-25ML-F), 0.03% BGG (0.22 μM filtered, Sigma, G7516-25G), and 0.01% Triton X-100 (Sigma, T9284-10L). […] Fluorescence was read on the Envision (Excitation at 485 nm and Emission at 535 nm; Perkin Elmer) or on the PheraSTAR (Excitation at 485 nm and Emission at 535 nm; BMG Labtech). […]
readout_kind: IC50

The value of IC50 measured for the compound CCn1ccc2cc(C(=O)NC[C@@H](C)c3cc(F)c(N4CC5CCC(C4)N5)cc3F)nnc21 (single isomer, unassigned) turned out to be 0.05 to 0.2 µM

IC50 recorded for this compound, CCn1ccc2cc(C(=O)NC[C@H](C)c3cc(F)c(N4CC5CCC(C4)N5)cc3F)nnc21 (single isomer, unassigned) , is 0.05 to 0.2 µM

Lab note: CCn1ccc2cc(C(=O)NCCc3ccc(N4CC5CCC(C4)N5)cc3)cnc21 gave IC50 of 0.001 to 0.05 µM

Short answer for Cn1ccc2cc(C(=O)NCCc3ccc(N4CCNCC4)cc3)cnc21 : IC50 was 0.2 to 2 µM

Data point: CCn1ccc2cc(C(=O)NCCc3ccc(N4CC5CCC(C4)N5)c(F)c3)cnc21 ; IC50 = 0.001 to 0.05 µM

Per the record, CCn1ccc2cc(C(=O)NCCc3cc(F)c(N4CC5CCC(C4)N5)cc3F)nnc21 has IC50 of 0.001 to 0.05 µM

// IC50 lookup, compound = O=C(NCCc1ccc(N2CCNCC2)cc1)c1cnc2[nH]ccc2c1 , result: 0.2 to 2 µM

Record summary for CCn1cc(Cl)c2cc(C(=O)NCCc3ccc(N4CCNCC4)cc3)cnc21 : reported IC50 = 0.001 to 0.05 µM

---

Each item that follows carries a reported pIC50.
# system_tested: UniProt Q9UHP3
# Sequence (Q9UHP3 1-1055): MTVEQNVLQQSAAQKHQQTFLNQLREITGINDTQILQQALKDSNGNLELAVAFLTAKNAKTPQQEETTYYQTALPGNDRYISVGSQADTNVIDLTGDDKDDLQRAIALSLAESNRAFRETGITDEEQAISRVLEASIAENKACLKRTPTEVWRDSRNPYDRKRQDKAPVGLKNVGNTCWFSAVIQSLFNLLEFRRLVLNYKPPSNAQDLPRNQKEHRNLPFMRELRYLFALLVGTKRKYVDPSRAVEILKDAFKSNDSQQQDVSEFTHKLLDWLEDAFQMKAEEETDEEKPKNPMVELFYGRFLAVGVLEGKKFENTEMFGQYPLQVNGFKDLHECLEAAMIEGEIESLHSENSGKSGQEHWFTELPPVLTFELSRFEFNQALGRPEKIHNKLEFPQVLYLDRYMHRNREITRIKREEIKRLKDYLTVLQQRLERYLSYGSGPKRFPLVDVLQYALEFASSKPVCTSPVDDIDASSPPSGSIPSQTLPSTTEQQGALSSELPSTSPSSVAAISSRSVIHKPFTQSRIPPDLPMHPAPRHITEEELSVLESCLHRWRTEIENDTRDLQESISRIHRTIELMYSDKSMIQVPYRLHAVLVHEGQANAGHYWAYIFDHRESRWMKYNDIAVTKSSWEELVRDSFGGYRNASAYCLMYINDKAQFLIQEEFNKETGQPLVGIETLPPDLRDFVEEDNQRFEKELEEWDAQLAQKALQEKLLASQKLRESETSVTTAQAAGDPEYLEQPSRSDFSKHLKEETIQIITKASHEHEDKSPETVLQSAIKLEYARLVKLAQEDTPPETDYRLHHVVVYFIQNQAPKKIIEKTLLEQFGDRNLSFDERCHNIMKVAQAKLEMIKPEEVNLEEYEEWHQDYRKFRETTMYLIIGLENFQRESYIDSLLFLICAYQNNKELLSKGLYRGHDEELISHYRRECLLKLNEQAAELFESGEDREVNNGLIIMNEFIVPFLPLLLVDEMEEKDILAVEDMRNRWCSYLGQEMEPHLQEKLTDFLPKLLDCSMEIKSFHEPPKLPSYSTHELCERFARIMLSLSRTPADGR
pIC50: −log10 of the molar value.

INSERT INTO measurements (compound, result) VALUES
  ('CC(C)(O)Cn1ccc2cc(C(=O)NCCc3cc(F)c(N4CC5CCC(C4)N5)cc3F)cnc21', '< 5.00'),
  ('CCn1ccc2cc(C(=O)NCCc3cc(F)c(N4CCNCC4)cc3F)cnc21', '5.70 to 6.70'),
  ('CCn1ccc2cc(C(=O)NCCc3ccc(N4CCNCC4)cc3)cnc21', '5.70 to 6.70'),
  ('CCn1ccc2cc(C(=O)NC[C@@H](C)c3cc(F)c(N4CC5CCC(C4)N5)cc3F)cnc21 (single isomer, unassigned)', '5.70 to 6.70'),
  ('O=C(NCCc1ccc(N2CCNCC2)cc1)c1cnc2[nH]cc(Cl)c2c1', '5.00 to 5.70');

Entry CCn1ccc2cc(C(=O)NC[C@H](C)c3cc(F)c(N4CCNCC4)cc3F)cnc21 (single isomer, unassigned) , tested on UniProt Q9UHP3, has a reported pIC50 of 5.00 to 5.70

Test item Nc1c(C(=O)NCCc2ccc(N3CCNCC3)cc2)cnc2[nH]ccc12 ; UniProt Q9UHP3; reported pIC50 was 5.00 to 5.70

Field pIC50 (system: UniProt Q9UHP3) for entry Cn1ccc2cc(C(=O)NCCc3ccc(N4CCNCC4)cc3)cnc21 = 5.70 to 6.70

---

# system_tested: USP28 (His-tagged USP28-FL-mammalian) (Homo sapiens, UniProt Q96RU2)
# Construct: Expression of USP28 (1-1077)-TEV-6*His (pTT5 vector) was carried out in Expi293f cells
# assay_overview: Ubiquitin-Rhodamine 110 Assay for USP28 Activity, Example A-1(a)
# conditions_used: USP28, 75 pM enzyme, 25 nM Ub-Rh110, 1536-well, 30 min preincubation; read-out: Assay A-1(a) (IC50 range)
pIC50: −log10 of the molar value.
readout_kind: pIC50

INSERT INTO measurements (compound, result) VALUES
  ('Nc1c(C(=O)NCCc2ccc(N3CCNCC3)cc2)cnc2[nH]ccc12', '5.70 to 6.70'),
  ('CCn1ccc2cc(C(=O)NC[C@H](C)c3cc(F)c(N4CCNCC4)cc3F)cnc21 (single isomer, unassigned)', '5.70 to 6.70'),
  ('CC(C)(O)Cn1ccc2cc(C(=O)NCCc3cc(F)c(N4CC5CCC(C4)N5)cc3F)cnc21', '5.00 to 5.70');

Entry CCn1ccc2cc(C(=O)NC[C@H](C)c3cc(F)c(N4CC5CCC(C4)N5)cc3F)cnc21 (single isomer, unassigned) , pIC50 reported as 7.30 to 9.00

meta.source: patent US12252490B2
